Numbers sourced from patent US9579314B2.

# target.under.test: UniProt P07550
# Sequence (P07550 whole entry): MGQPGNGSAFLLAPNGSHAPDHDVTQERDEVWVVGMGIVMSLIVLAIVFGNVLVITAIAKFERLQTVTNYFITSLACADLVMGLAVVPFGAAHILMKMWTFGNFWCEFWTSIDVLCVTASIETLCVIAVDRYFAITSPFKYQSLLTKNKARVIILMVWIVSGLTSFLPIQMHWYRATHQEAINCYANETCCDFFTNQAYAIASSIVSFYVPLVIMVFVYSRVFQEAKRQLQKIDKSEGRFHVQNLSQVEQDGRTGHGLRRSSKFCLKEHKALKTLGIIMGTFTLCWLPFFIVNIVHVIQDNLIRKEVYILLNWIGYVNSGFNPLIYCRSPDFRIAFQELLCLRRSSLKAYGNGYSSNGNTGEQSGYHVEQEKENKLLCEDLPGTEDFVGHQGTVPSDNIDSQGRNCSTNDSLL
pIC50: −log10 of the molar value.
reported.metric: pIC50

Use the examples below as a reference point.
>>> meas_value("CN1CCC(COC(=O)[C@](O)(c2ccccc2)c2cccc(OCCCNC(=O)c3ccc(CNC[C@H](O)c4ccc(O)c5[nH]c(=O)ccc45)cc3)c2)CC1")
"> 9.52"
>>> meas_value("COc1cc(C(=O)NCCNC(=O)c2ccc(COc3cccc([C@](O)(C(=O)OCC4CCN(Cc5ccccc5)CC4)c4ccccc4)c3)cc2)ccc1CNC[C@H](O)c1ccc(O)c2[nH]c(=O)ccc12")
"8.52 to 9.52"

### Prompt Output measured pIC50 for this item: "O=C(NCCCOc1cccc([C@](O)(C(=O)OC2CN(Cc3ccccc3)C2)c2ccccc2)c1)c1ccc(CNC[C@H](O)c2ccc(O)c3[nH]c(=O)ccc23)cc1"
### Response > 9.52

### Prompt Output measured pIC50 for this item: "O=C(COc1cccc([C@](O)(C(=O)OCC2CCN(Cc3ccccc3)CC2)c2ccccc2)c1)N1CCC(C(=O)N2CCC(CNC[C@H](O)c3ccc(O)c4[nH]c(=O)ccc34)CC2)CC1"
### Response > 9.52

### Prompt Output measured pIC50 for this item: "O=C(COc1cccc([C@](O)(C(=O)OCC2CCN(Cc3ccccc3)CC2)c2ccccc2)c1)N1CCN(C(=O)c2ccc(CNC[C@H](O)c3ccc(O)c4[nH]c(=O)ccc34)cc2)CC1"
### Response 8.52 to 9.52

### Prompt Output measured pIC50 for this item: "O=C(NCCCOc1cccc([C@](O)(C(=O)O[C@H]2CCN(Cc3ccccc3)C2)c2ccccc2)c1)c1ccc(CNC[C@H](O)c2ccc(O)c3[nH]c(=O)ccc23)cc1"
### Response 8.52 to 9.52

### Prompt Output measured pIC50 for this item: "O=C(c1ccc(CCNC[C@H](O)c2ccc(O)c3[nH]c(=O)ccc23)cc1)N1CCC2(CC1)CN(C(=O)c1ccc(COc3cccc([C@](O)(C(=O)OCC4CCN(Cc5ccccc5)CC4)c4ccccc4)c3)cc1)CCO2"
### Response > 9.52

### Prompt Output measured pIC50 for this item: "O=C(c1ccc(C(=O)N2CCC(COc3cccc([C@](O)(C(=O)OCC4CCN(Cc5ccccc5)CC4)c4ccccc4)c3)CC2)s1)N1CCC(CNC[C@H](O)c2ccc(O)c3[nH]c(=O)ccc23)CC1"
### Response > 9.52

### Prompt Output measured pIC50 for this item: "O=C(COc1cccc([C@](O)(C(=O)OCC2CCN(Cc3ccccc3)CC2)c2ccccc2)c1)N[C@@H]1CCN(C(=O)c2ccc(CCNC[C@H](O)c3ccc(O)c4[nH]c(=O)ccc34)cc2)C1"
### Response 8.52 to 9.52

### Prompt Output measured pIC50 for this item: "O=C(NCC(=O)N1CCC(COc2cccc([C@](O)(C(=O)OCC3CCN(Cc4ccccc4)CC3)c3ccccc3)c2)CC1)c1ccc(CNC[C@H](O)c2ccc(O)c3[nH]c(=O)ccc23)cc1"
### Response > 9.52

====

Consider compounds characterized by their IC50 with UniProt:P20309.
Sequence (P20309 whole entry): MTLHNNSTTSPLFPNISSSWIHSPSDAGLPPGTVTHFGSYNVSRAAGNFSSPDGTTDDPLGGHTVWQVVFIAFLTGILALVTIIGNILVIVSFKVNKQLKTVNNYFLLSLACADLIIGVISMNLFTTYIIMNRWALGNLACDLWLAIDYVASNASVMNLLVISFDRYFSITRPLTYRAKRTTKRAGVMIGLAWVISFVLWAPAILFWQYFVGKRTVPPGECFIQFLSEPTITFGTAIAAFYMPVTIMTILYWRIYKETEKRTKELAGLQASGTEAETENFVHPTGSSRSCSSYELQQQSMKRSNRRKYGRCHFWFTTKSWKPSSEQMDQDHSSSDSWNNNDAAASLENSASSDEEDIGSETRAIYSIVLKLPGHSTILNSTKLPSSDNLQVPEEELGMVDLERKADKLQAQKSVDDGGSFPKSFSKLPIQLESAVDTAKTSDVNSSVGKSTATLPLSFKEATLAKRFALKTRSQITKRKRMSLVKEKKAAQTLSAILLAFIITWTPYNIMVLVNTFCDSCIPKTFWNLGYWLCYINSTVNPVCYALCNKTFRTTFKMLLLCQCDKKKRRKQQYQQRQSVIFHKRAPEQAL

### Prompt Enter IC50 (test system UniProt:P20309) for O=C(OCC1CCN(Cc2ccccc2)CC1)C(O)(c1ccccc1)c1ccc(OCCCCCNC[C@H](O)c2ccc(O)c3[nH]c(=O)ccc23)cc1 (some centres unmarked) [Compound 51, diformate]
### Response 300 to 3000 pM

### Prompt Enter IC50 (test system UniProt:P20309) for "O=C(OCC1CCN(Cc2ccccc2)CC1)[C@](O)(c1ccccc1)c1cccc(OCCCCCNC[C@H](O)c2ccc(O)c3[nH]c(=O)ccc23)c1"
### Response < 300 pM
